B1: TEKT4 (parent)
chain: LREKLLEAEQSLRNLEDIHMSLEK

- Variants of: B1
- ASSAY_INFO: protein stability index of a GFP-peptide fusion (GPS, HEK-293T) (PSI 1-6); higher = more stable;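 note: lentivirally expressed fusions sorted by FACS into six bins by GFP to DsRed ratio, PSI derived from sequencing read proportions per bin multiplied by bin number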
- RUN_CONDITIONS: c terminus: a fixed tail appended
We begin with a simple list: items and their reported protein stability index.

Use these answered entries as a reference point.
{"ENTRY_SEQUENCE": "MREKLLEAEQSLRNLEDIHMSLEK [L1M]", "REPORTED_MEASUREMENT": 3.12}
{"ENTRY_SEQUENCE": "LREKLLEAEQSLRNLEDIHMSSEK [L22S]", "REPORTED_MEASUREMENT": 2.65}
{"ENTRY_SEQUENCE": "LREKLLEAEQSLRNLDDIHMSLEK [E16D]", "REPORTED_MEASUREMENT": 2.35}
{"ENTRY_SEQUENCE": "LREKLLEAEQSLRNLEDWHMSLEK [I18W]", "REPORTED_MEASUREMENT": 3.13}
{"ENTRY_SEQUENCE": "LREKLQEAEQSLRNLEDIHMSLEK [L6Q]", "REPORTED_MEASUREMENT": 2.91}
{"ENTRY_SEQUENCE": "LREKLLEAEQSSRNLEDIHMSLEK [L12S]", "REPORTED_MEASUREMENT": 3.62}
{"ENTRY_SEQUENCE": "LRRKLLEAEQSLRNLEDIHMSLEK [E3R]", "REPORTED_MEASUREMENT": 2.69}
{"ENTRY_SEQUENCE": "EREKLLEAEQSLRNLEDIHMSLEK [L1E]", "REPORTED_MEASUREMENT": 5.12}

Lookup result for LREKLLEAEQSLRNLEIIHMSLEK [D17I] ; measured protein stability index: 1.58

Looking up LREKLLEAEQSLRNLEDIFMSLEK [H19F] , I found its protein stability index recorded as 1.83

For record LREKLLEAEQSLRNLEDICMSLEK [H19C] the listed protein stability index is 2.96

Item: LREKLLCAEQSLRNLEDIHMSLEK [E7C] | protein stability index: 2.17

LREKLLEAELSLRNLEDIHMSLEK [Q10L] has a reported protein stability index of 3.22

Memo: LREKLLEAEQSLRNLEDIHMSLLK [E23L] , reported protein stability index: 2.65

Entry LREKLLEAEQSLRNLEDIHMSYEK [L22Y] ; protein stability index = 2.08

Per the records, this variant ( LREKLLEHEQSLRNLEDIHMSLEK [A8H] ) has protein stability index equal to 3.67

Short answer for LREKLLEAEQSLRNLEDIHMLLEK [S21L] : protein stability index was 1.59

Value of measured protein stability index for the entry LREKLLEAEQSLRNLEDIHMSLNK [E23N] : 1.47

protein stability index recorded for this variant, LREKLLEAEQSLRNLEDIHMSLEN [K24N] , is 2.13

protein stability index reading for LREKLLEAEQSLRNLEQIHMSLEK [D17Q] : 2.23

Summary for this variant, LHEKLLEAEQSLRNLEDIHMSLEK [R2H] : protein stability index is 2.02

The recorded protein stability index for entry LREKLLEAEQSLRKLEDIHMSLEK [N14K] equals 2.27

# variant LREKLLEAEQSLRNLEDIHNSLEK [M20N] ; its protein stability index = 2.25

// sample LREKLLEFEQSLRNLEDIHMSLEK [A8F] , its protein stability index was 2.52

The recorded protein stability index for entry LREKLLEAEQSLRNLEDIMMSLEK [H19M] equals 2.79

Sure, the documented protein stability index for LREKLLEAEQSLRNLEDIRMSLEK [H19R] is 2.42

protein stability index measured on VREKLLEAEQSLRNLEDIHMSLEK [L1V] = 1.98
